- measurement-protocol: Solubility of the compound at pH 7.4
- Type: physicochemical
- condition-context: buffer
readout-name: solubility

[ask] solubility lookup needed for CS(=O)(=O)Nc1ccc2ccc3ncc(-c4ccccc4)cc3c(=O)c2c1 , thanks.
[reply] 0.5 µg/mL

Please find the next compound below.
[ask] solubility lookup needed for CN(C[C@@H]1COCCO1)S(=O)(=O)Nc1ccc2ccc3ncc(-c4cnn(C)c4)cc3c(=O)c2c1 , thanks.
[reply] 3 µg/mL

----------
- study-target: Hepatocyte growth factor receptor (Homo sapiens)
- Sequence (P08581 whole entry): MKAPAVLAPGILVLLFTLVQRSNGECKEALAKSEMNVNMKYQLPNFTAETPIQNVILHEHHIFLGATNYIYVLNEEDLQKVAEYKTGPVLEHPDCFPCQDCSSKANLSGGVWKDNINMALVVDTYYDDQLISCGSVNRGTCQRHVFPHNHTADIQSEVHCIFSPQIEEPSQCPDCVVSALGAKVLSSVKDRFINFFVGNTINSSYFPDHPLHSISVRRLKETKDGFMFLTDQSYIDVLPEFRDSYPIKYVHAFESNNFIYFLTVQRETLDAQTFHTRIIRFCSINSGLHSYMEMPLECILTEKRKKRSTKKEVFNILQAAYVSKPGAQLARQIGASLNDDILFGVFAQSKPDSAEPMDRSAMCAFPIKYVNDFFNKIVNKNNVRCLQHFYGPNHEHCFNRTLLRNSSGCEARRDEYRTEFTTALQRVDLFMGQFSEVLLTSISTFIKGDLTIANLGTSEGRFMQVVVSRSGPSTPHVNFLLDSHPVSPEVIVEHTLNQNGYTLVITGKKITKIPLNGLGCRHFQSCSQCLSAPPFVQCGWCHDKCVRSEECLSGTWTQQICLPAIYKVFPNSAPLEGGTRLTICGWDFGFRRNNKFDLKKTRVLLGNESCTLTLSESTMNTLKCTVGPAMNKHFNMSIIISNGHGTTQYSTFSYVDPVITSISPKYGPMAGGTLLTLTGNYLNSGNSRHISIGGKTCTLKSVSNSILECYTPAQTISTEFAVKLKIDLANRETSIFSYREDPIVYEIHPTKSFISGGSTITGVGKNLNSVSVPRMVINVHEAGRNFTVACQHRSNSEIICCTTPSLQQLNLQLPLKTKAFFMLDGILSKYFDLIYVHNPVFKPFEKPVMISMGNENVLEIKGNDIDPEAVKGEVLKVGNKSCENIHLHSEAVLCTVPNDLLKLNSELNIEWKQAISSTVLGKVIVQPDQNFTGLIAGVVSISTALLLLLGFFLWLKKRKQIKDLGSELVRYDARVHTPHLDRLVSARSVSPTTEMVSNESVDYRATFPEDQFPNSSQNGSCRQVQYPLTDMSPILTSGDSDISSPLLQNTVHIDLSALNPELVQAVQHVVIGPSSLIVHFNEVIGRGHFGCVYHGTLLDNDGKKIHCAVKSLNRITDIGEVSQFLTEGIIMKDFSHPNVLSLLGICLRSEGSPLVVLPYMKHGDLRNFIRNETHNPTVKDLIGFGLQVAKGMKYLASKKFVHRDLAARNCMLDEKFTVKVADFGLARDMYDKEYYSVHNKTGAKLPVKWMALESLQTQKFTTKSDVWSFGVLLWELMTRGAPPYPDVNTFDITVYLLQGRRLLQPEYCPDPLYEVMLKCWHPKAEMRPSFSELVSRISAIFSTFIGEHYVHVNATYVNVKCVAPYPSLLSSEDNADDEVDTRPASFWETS
- measurement-protocol: Inhibition of c-MET overexpressed in human GTL-16 cells assessed as phosphorylation at C-terminal Y1234 after 2 hrs by Western blot analysis
- Type: cell-based
readout-name: IC50

[ask] IC50 lookup needed for CN(C[C@@H]1COCCO1)S(=O)(=O)Nc1ccc2ccc3ncc(-c4cnn(C)c4)cc3c(=O)c2c1 , thanks.
[reply] > 2500 nM
